The next entries give measured GI50 for NCI-H460 lung.

COMPOUND | GI50
CN1CCN(c2ccc3nc(-c4ccc5nc(-c6ccc(OCCC(C)(C)C)cc6)[nH]c5c4)[nH]c3c2)CC1 | 2.13 µM
CCN(C(=O)c1cc(F)ccc1Oc1cncnc1N1CC2(CCN(CC3CCC(NS(=O)(=O)CC)CC3)CC2)C1)C(C)C (centres undefined) | > 100 µM
N#CSCC1CC(O)(c2ccccc2)CC(c2ccc(F)cc2)O1 (centres undefined) | 2.08 µM
COc1cc2c(cc1C)NC(=O)/C2=C\c1cccc(Oc2ccccc2)c1 | 12.9 µM
Nc1nc(-c2ccc(F)cc2)c(-c2ccc3ncccc3n2)s1 | 8.7 µM
CC1(C)[C@@H](O[C@@H]2OC[C@@H](O[C@@H]3O[C@H](CO)[C@@H](O)[C@H](O)[C@H]3O[C@@H]3OC[C@@H](O)[C@H](O)[C@H]3O)[C@H](O)[C@H]2O[C@@H]2O[C@H](CO)[C@@H](O)[C@H](O)[C@H]2O)CC[C@]2(C)[C@H]3CC[C@]45OC[C@@]6(CC[C@](C)(C=O)C[C@H]64)[C@H](O)C[C@@]5(C)[C@]3(C)CC[C@@H]12 | 1.17 µM
COc1ccc(-c2nc3ccccn3c2/C=C/C(=O)c2cc(OC)c(OC)c(OC)c2)cc1 | 4.09 µM
CN(C)c1ccc(C(Cc2ccc3ccccc3n2)Cc2ccc3ccccc3n2)cc1 | 3.14 µM
CCC1CCc2nc3sc(C(=O)Nc4cccc(F)c4)c(N)c3cc2C1 (centres undefined) | > 100 µM
COc1ccc(Cn2cc3c(c2-c2ccc(OC)cc2)CCc2cnoc2-3)cc1 | 0.347 µM
COc1ccc2c(c1)C(=O)c1c-2c(Nc2ccc(Cl)cc2)nc2ccccc12 | > 100 µM
O=C1/C(=C/c2ccc(Cl)cc2)N=C(c2ccccc2)N1CCc1cccs1 | 20.1 µM
O=C(Nc1ccccc1)NS(=O)(=O)c1ccc(-n2nc3c(c2-c2ccc(Cl)cc2)Cc2ccccc2-3)cc1 | 22.3 µM
NC(=O)c1cc(-c2ccc(F)cc2)cc(-c2ccncc2)c1N | > 25 µM
COc1cc(O)c(C(=O)/C=C/c2ccc(O)cc2)c(O)c1[C@@H]1C[C@H](CCc2ccc(O)cc2)O[C@H](c2ccc(O)cc2)C1 | 3 µM
O=C(/C=C/c1cc([N+](=O)[O-])ccc1Cl)c1ccccc1 | 14.1 µM
CC[C@@H](C(=O)[C@@H](C)[C@@H](O)[C@H](C)[C@@H]1O[C@@H]([C@@H](CC)C(=O)N(CC)CC)CC[C@@H]1C)C1O[C@]2(C=CC(=O)[C@]3(CC[C@@](C)([C@H]4CC[C@](O)(CC)[C@H](C)O4)O3)O2)[C@H](C)C[C@@H]1C (some centres undefined) | 2.11 µM
O=C(NCc1ccc(Cn2c(=O)sn(-c3ccccc3)c2=O)cc1)OCc1ccc2c(Br)cc(Br)c(O)c2n1 | 1.48 µM
CC(=Nc1ccccc1)C1=C(O)C(Cc2ccccc2)NC1=O (centres undefined) | 0.0375 µM
